Origin of measurements: the supplement of paper PMC12532568

System: Danio rerio larvae Tg(actc1b:ZsGreen-LC3), 3 dpf
Assay: LC3 puncta relative area vs vehicle, with NH4Cl (autophagic flux) (log2 fold change); higher = more autophagy
Settings: 10 µM; treatment time 16 h; NH4Cl: + 100 mM, 4 h
Structures can show the parent of a compound that is named as a salt.
The threshold is inclusive: LC3 puncta (log2) of exactly 0.6 counts as 1; values below receive -1.

molecule | class assignment
c1ccc(CN2CCC3(CCc4ccccc43)CC2)cc1 [L-693,403 maleate] | 1
N[C@H](C(=O)O)c1ccc(O)c(C(=O)O)c1 [(S)-3-Carboxy-4-hydroxyphenylglycine] | -1
O=C(O)C1=CCCNC1 [Guvacine hydrochloride] | -1
CC(C)NC[C@@H](O)COc1cccc2ccccc12 [(R)-(+)-Propranolol hydrochloride] | -1
CC(C)(Oc1ccc(Cl)cc1)C(=O)O | 1
CCCC[C@@H](C=O)NC(=O)[C@H](CC(C)C)NC(=O)OCc1ccccc1 | 1
COc1cc2c(CCNC(C)=O)c[nH]c2cc1Cl | -1
CNCCCCOc1ccccc1Cc1ccccc1 | -1
COC(=O)C1=C(C)NC(C)=C(C(=O)OCCSc2ccccc2)C1C (stereo unspecified) | 1
CN(C)CCCSC(=N)N [Dimaprit dihydrochloride] | -1
COc1cc(N)c(Cl)cc1C(=O)OCCCN1CCCCC1 | -1
CN(C)CCCCSC(=N)N | -1
N[C@@H](CSS(=O)(=O)O)C(=O)O [S-Sulfo-L-cysteine sodium salt] | -1
CN1CCC(=C2c3ccccc3CC(=O)c3sccc32)CC1 [Ketotifen fumarate] | 1
O=C(NCCN1CCCCC1)c1ccc(I)cc1 [N-[2-(Piperidinylamino)ethyl]-4-iodobenzamide] | -1
O=c1nc2ccccc2c2n1CC(CN1CCN(c3ccccc3)CC1)N2 (stereo unspecified) | -1
CC(=O)N1CCN(C)CC1 [1-Acetyl-4-methylpiperazine hydrochloride] | -1
CC(C)NCC(O)COc1cccc2ccccc12 (stereo unspecified) [Propranolol hydrochloride] | 1
N[C@H]1CCN(O)C1=O | -1

---

Test system: Danio rerio larvae Tg(actc1b:ZsGreen-LC3), 3 dpf
Assay: LC3 puncta relative area vs vehicle, without NH4Cl (log2 fold change); higher = more autophagosomes
Details: 10 µM; treatment time 16 h; NH4Cl: none
Counter-ions that a name gives are not always drawn.
Listing of recorded LC3 puncta (log2) by entry.
quantity name: LC3 puncta (log2)

compound | quantity name | recorded number
COc1ccc2[nH]c(-c3ccccc3)c(CCNC(C)=O)c2c1 [2-Phenylmelatonin] | LC3 puncta (log2) | 0.513
COC(=O)/C=C/c1cc(O)ccc1O [Methyl 2,5-dihydroxycinnamate] | LC3 puncta (log2) | 0.0626
COc1cc(C(=O)OCCCN2CCCN(CCCOC(=O)c3cc(OC)c(OC)c(OC)c3)CC2)cc(OC)c1OC [Dilazep] | LC3 puncta (log2) | 0.175
O=C(O)c1cc(=O)c2c(Cl)cc(Cl)cc2[nH]1 [5,7-Dichlorokynurenic acid] | LC3 puncta (log2) | -0.0706
NC(N)=Nc1ccc(Cl)cc1 [4-Chlorophenylguanidine hydrochloride] | LC3 puncta (log2) | -0.45
CC(C)NC[C@@H](O)COc1cccc2ccccc12 [(R)-(+)-Propranolol hydrochloride] | LC3 puncta (log2) | 0.00434
O=C(NCCCN1CCCCCC1)C(c1ccccc1)C1CCCCC1 (centres undefined) | LC3 puncta (log2) | 0.0552
O=C(OCCN1CCCCC1)c1c[nH]c2ccccc12 | LC3 puncta (log2) | 0.11
N[C@H](C(=O)O)c1ccc(O)c(C(=O)O)c1 [(S)-3-Carboxy-4-hydroxyphenylglycine] | LC3 puncta (log2) | 0.267

---

Listing: LC3 puncta (log2) of selected compounds
System: Danio rerio larvae Tg(actc1b:ZsGreen-LC3), 3 dpf
Assay: LC3 puncta relative area vs vehicle, without NH4Cl (log2 fold change); higher = more autophagosomes
Conditions: 10 µM; treatment time 16 h; NH4Cl: none
Counter-ions that a name gives are not always drawn.

compound | LC3 puncta (log2)
CC(C)[N+]1(C)[C@@H]2CC[C@H]1C[C@@H](OC(=O)C(CO)c1ccccc1)C2 (some centres undefined) [Ipratropium bromide] | -0.65
NC(=O)OCC(COC(N)=O)c1ccccc1 [Felbamate] | -0.737
CC(C)NC[C@H](O)COc1ccc(CC(N)=O)cc1 [(S)-(-)-Atenolol] | 0.12
N[C@H]1CCN(O)C1=O | 0.0498
CCC1(c2ccccc2)C(=O)NCNC1=O [Primidone] | 0.333
CN(C)CCCSC(=N)N [Dimaprit dihydrochloride] | 0.203
CCN(CC)CCOC(=O)C1(c2ccc([N+](=O)[O-])cc2)CCCC1 [Nitrocaramiphen hydrochloride] | 0.254
O=C(O)CC/C=C\C[C@H]1CO[C@@H](c2ccccc2Cl)O[C@H]1c1ccccc1O | -0.249
N[C@H](C(=O)O)c1cc(O)cc(O)c1 | 0.537
Cc1ccc2c(c1)c1c3n2CCNC3CCC1 (centres undefined) [Pirlindole mesylate] | 0.028
O=C(O)c1cc(O)c2ccc(Cl)cc2n1 [7-Chlorokynurenic acid] | 0.0331
O=[N+]([O-])c1cccc2c(Br)[nH]nc12 [3-Bromo-7-nitroindazole] | 0.159
N=C(N)S/C=C\C(=O)O [ZAPA sulfate] | 0.0963
CN(C)CCCCSC(=N)N | 0.222
CC(C)(Oc1ccc(Cl)cc1)C(=O)O [Clofibric acid] | 0.448
CNC(=O)c1cc2c(cn1)[nH]c1ccccc12 | 0.13
CC(C(O)c1ccc(O)cc1)N1CCC(Cc2ccccc2)CC1 (centres undefined) [Ifenprodil hemitartrate] | -0.219
O=c1nc2ccccc2c2n1CC(CN1CCN(c3ccccc3)CC1)N2 (centres undefined) | 0.0176
CC(C)CC(NC(=O)OCC1c2ccccc2-c2ccccc21)C(=O)O (centres undefined) | 0.0242
COc1ccccc1N1CCN(CCCCN2C(=O)c3ccccc3C2=O)CC1 [NAN-190 hydrobromide] | 0.201
CC1=C(/C=C/C(C)=C/C=C/C(C)=C/C(=O)O)C(C)(C)CCC1 [Retinoic acid] | 0.44
Cc1ccc(/C(=C\CN2CCCC2)c2ccccn2)cc1 [trans-Triprolidine hydrochloride] | -0.298
N[C@@H](CSS(=O)(=O)O)C(=O)O [S-Sulfo-L-cysteine sodium salt] | -0.101
O=C(O)c1cccnc1C(=O)O [Quinolinic acid] | 0.278
CC#CCOC(=O)C1=CCCN(C)C1 [Arecaidine but-2-ynyl ester tosylate] | 0.463
COC(=O)C1=C(C)NC(C)=C(C(=O)OCCSc2ccccc2)C1C (centres undefined) | 0.00326
CC(=O)N[C@@H](CC(=O)N[C@@H](CCC(=O)O)C(=O)O)C(=O)O [Spaglumic acid] | -0.106
CCCCCCN(CCCCCC)C(=O)Cc1c(-c2ccc(F)cc2)[nH]c2ccccc12 | 0.084
COCCOC(=O)C1=C(C)NC(C)=C(C(=O)OC(C)C)C1c1cccc([N+](=O)[O-])c1 (centres undefined) [Nimodipine] | 0.31
c1ccc(N2CCN(CCCOc3ccc4c(c3)OCO4)CC2)cc1 [BP 554 maleate] | 0.01
CC12CC3CC(C)(C1)CC(N)(C3)C2 [Memantine hydrochloride] | 0.145
CC(Cc1ccc(O)c(O)c1)(NN)C(=O)O [(S)-(-)-Carbidopa] | 0.0108
N[C@@H](C(=O)O)c1ccc(O)c(C(=O)O)c1 [(R)-3-Carboxy-4-hydroxyphenylglycine] | 0.211
c1ccc2sc(N3CCN(Cc4ccc5c(c4)OCO5)CC3)nc2c1 [2-[1-(4-Piperonyl)piperazinyl]benzothiazole] | 0.135
C/N=C(/NC#N)NCCSCc1csc(NC(=N)N)n1 [Tiotidine] | 0.383
CNCCCCOc1ccccc1Cc1ccccc1 [Bifemelane] | 0.531
O=C(NCCN1CCCCC1)c1ccc(I)cc1 [N-[2-(Piperidinylamino)ethyl]-4-iodobenzamide] | 0.492
CC(C)NC[C@H](O)COc1cccc2ccccc12 [(S)-(-)-Propranolol hydrochloride] | 0.355
COc1cc(N)c(Cl)cc1C(=O)OCCCN1CCCCC1 | -0.0084

---

Tested on: Danio rerio larvae Tg(actc1b:ZsGreen-LC3), 3 dpf
Assay: LC3 puncta relative area vs vehicle, with NH4Cl (autophagic flux) (log2 fold change); higher = more autophagy
Conditions: 10 µM; treatment time 16 h; NH4Cl: + 100 mM, 4 h
Counter-ions that a name gives are not always drawn.

compound | LC3 puncta (log2)
O=C(O)c1cc(=O)c2c(Cl)cc(Cl)cc2[nH]1 [5,7-Dichlorokynurenic acid] | 0.00257
CCOC(=O)C1=C(C)NC(C)=C(C(=O)OC)C1c1cccc([N+](=O)[O-])c1 (stereo not drawn) [Nitrendipine] | 0.513
CC1(C(=O)O)NCCc2cc(O)c(O)cc21 (stereo not drawn) [Salsolinol-1-carboxylic acid] | 0.429
CN1CCN(C2=Cc3ccccc3Oc3ccc(Cl)cc32)CC1 | 0.934
COc1ccccc1N1CCN(CCCCN2C(=O)c3ccccc3C2=O)CC1 [NAN-190 hydrobromide] | 0.496
CC(C)Oc1ccc2c(=O)c3cc(C(=O)O)ccc3oc2c1 | 0.814
COc1ccccc1N1CCN(CC(O)COc2cccc3ccccc23)CC1 (stereo not drawn) [Naftopidil dihydrochloride] | 0.195
N[C@@H](C(=O)O)c1ccc(O)c(C(=O)O)c1 [(R)-3-Carboxy-4-hydroxyphenylglycine] | 0.421
NC(C(=O)O)c1cc(O)cc(O)c1 (racemic) | 0.022
Cc1ccc(OCC(O)C(C)NC(C)C)c2c1CCC2 (stereo not drawn) [ICI 118,551 hydrochloride] | 0.592
Fc1ccc(C(c2ccc(F)cc2)N2CCN(C/C=C/c3ccccc3)CC2)cc1 [Flunarizine dihydrochloride] | 0.536
N[C@H](C(=O)O)c1ccc(C(=O)O)c(O)c1 [(S)-4-Carboxy-3-hydroxyphenylglycine] | -0.0785
COc1ccc2[nH]c(-c3ccccc3)c(CCNC(C)=O)c2c1 [2-Phenylmelatonin] | 0.594
CC(C)NC[C@H](O)COc1cccc2ccccc12 [(S)-(-)-Propranolol hydrochloride] | 1.09
O=C1CC2(CCCC2)CC(=O)N1CCCCNCC1COc2ccccc2O1 (stereo not drawn) | -0.368
NC(N)=NC(N)=Nc1cccc(Cl)c1 [m-Chlorophenylbiguanide hydrochloride] | 0.782
c1ccc2oc(C3=NCCN3)cc2c1 [2-BFI hydrochloride] | -0.32
CC(C)NC[C@H](O)COc1ccc(CC(N)=O)cc1 [(S)-(-)-Atenolol] | 0.611
